- System: Tera-2 testicular cancer cells
- Method Notes: MTT cytotoxicity assay of vanadocenes, TERA-2 cells
- Format: cell-based, human
- Measurement Parameters: 24 h, 1.9-250 μM
- Description: Human testicular cancer cell lines, Tera-2 (embryonal carcinoma) and Ntera-2 (pluripotent embryonal carcinoma) were obtained from the American Type Culture Collection (ATCC) (Rockeville, Md.) and propagated in T-25, T-75, or T-150 cm^2 tissue culture flasks (Corning Corp., Corning, N.Y.) in McCoy's 5A medium and Dulbecco's modified Eagle's medium respectively. Both media were supplemented with 10% fetal calf serum (FCS), 4 mM glutamine, 100 U/ml penicillin G, and […] streptomycin sulfate. […]
// reported IC50 for each item listed
// note: answer is a bare numeric in µM

Solved entries (count: 6):
>>> print(df.to_string())
                                   compound  obs_value
0  Cc1c(C)c(C)[c-](C)c1C.Cc1c(C)c(C)[c-](C)c1C.[Cl-].[Cl-].[V+2] [VPMDC, V(Me5Cp)2Cl2]        127
1  [Cl-].[N-]=C=O.[V+2].c1cc[cH-]c1.c1cc[cH-]c1 [VDCO, VCp2(NCO)Cl]         50
2  [I-].[I-].[V+2].c1cc[cH-]c1.c1cc[cH-]c1 [VDI, VCp2I2]        221
3  [Br-].[Br-].[V+2].c1cc[cH-]c1.c1cc[cH-]c1 [VDB, VCp2Br2]        154
4  [N-]=[N+]=[N-].[N-]=[N+]=[N-].[V+2].c1cc[cH-]c1.c1cc[cH-]c1 [VDA, VCp2(N3)2]         70
5  [O-]c1ccccc1[O-].[V+2].c1cc[cH-]c1.c1cc[cH-]c1 [VD(cat), Cp2V(cat)]         79

Data request: Using known records, supply IC50 for O=S(=O)(O)C(F)(F)F.O=S(=O)(O)C(F)(F)F.[V+2].c1cc[cH-]c1.c1cc[cH-]c1 [VDT, VCp2(O3SCF3)2]
Data returned: 76

====

- Tested on: BT20 breast cancer cells
- Method Notes: Cytotoxic activity of oxovanadium(IV) compounds, BT20
- Format: cell-based, human
- Measurement Parameters: read-out: Cytotoxic Activity BT20
pIC50: −log10 of the molar value.
Measure: pIC50

Data request: Using known records, supply pIC50 for "CC(=O)c1cc(Br)ccc1[O][V](=[O])[O]c1ccc(Br)cc1C(C)=O"
Data returned: < 4.00

====

- Tested on: Ntera-2 testicular cancer cells
- Method Notes: Flow cytometric TUNEL apoptosis assay, NTERA-2 cells
- Format: cell-based, human
- Measurement Parameters: 24 h, TUNEL-positive nuclei
Measure: % Apoptosis at 100 μM NTERA-2

Solved entries (count: 2):
>>> df
                                smiles_code                        measure          obs_value
0  O=S(=O)(O)C(F)(F)F.O=S(=O)(O)C(F)(F)F.[V+2].c1cc[cH-]c1.c1cc[cH-]c1  % Apoptosis at 100 μM NTERA-2  55 ± 26 (N = 4) %
1  CC#N.[Cl-].[Cl-].[Cl-].[Cl-].[Cl-].[Fe+3].[V+4].c1cc[cH-]c1.c1cc[cH-]c1  % Apoptosis at 100 μM NTERA-2      87 (81, 94) %

Data request: Using known records, supply % Apoptosis at 100 μM NTERA-2 for "CC(=O)[CH-]C(C)=O.O=S(=O)([O-])C(F)(F)F.[V+4].c1cc[cH-]c1.c1cc[cH-]c1"
Data returned: 48 ± 13 (N = 3) %

====

- Test system: U266BL multiple myeloma cells
- Method Notes: MTT cytotoxicity assay of oxovanadium(IV) compounds, U266BL
- Type: cell-based, human
- Measurement Parameters: 48 hr
Measure: pIC50
Please report pIC50 as the negative decimal logarithm of the molar concentration, giving only the number.

Data request: Using known records, supply pIC50 for "CC(=O)c1cc(Br)ccc1[O][V](=[O])[O]c1ccc(Br)cc1C(C)=O"
Data returned: 4.01

====

- Tested on: Tera-2 testicular cancer cells
- Method Notes: Flow cytometric TUNEL apoptosis assay, TERA-2 cells
- Assay type: cell-based, human
- Measurement Parameters: 24 h, TUNEL-positive nuclei
// reported % Apoptosis at 100 μM TERA-2 for each item listed

                                smiles_code                 subject_of_test                       measure      obs_value
0  C1=C[CH]([V+2][CH]2C=CC=C2)C=C1.[N-]=C=[Se].[N-]=C=[Se]  Tera-2 testicular cancer cells  % Apoptosis at 100 μM TERA-2  78 (75, 80) %

Data request: Using known records, supply % Apoptosis at 100 μM TERA-2 for "Cc1c(C)c(C)[c-](C)c1C.Cc1c(C)c(C)[c-](C)c1C.[Cl-].[Cl-].[V+2]"
Data returned: 35 (35, 36) %

Data request: Using known records, supply % Apoptosis at 100 μM TERA-2 for "[Cl-].[Cl-].[V+4].c1cc[cH-]c1.c1cc[cH-]c1"
Data returned: 88 (87, 89) %

Data request: Using known records, supply % Apoptosis at 100 μM TERA-2 for "CC(=O)[CH-]C(C)=O.O=S(=O)([O-])C(F)(F)F.[V+4].c1cc[cH-]c1.c1cc[cH-]c1"
Data returned: 72 ± 17%

Data request: Using known records, supply % Apoptosis at 100 μM TERA-2 for "CC#N.[Cl-].[Cl-].[Cl-].[Cl-].[Cl-].[Fe+3].[V+4].c1cc[cH-]c1.c1cc[cH-]c1"
Data returned: 85 (84, 87) %

Data request: Using known records, supply % Apoptosis at 100 μM TERA-2 for "[Br-].[Br-].[V+2].c1cc[cH-]c1.c1cc[cH-]c1"
Data returned: 84 (83, 86) %

Data request: Using known records, supply % Apoptosis at 100 μM TERA-2 for "[N-]=[N+]=[N-].[N-]=[N+]=[N-].[V+2].c1cc[cH-]c1.c1cc[cH-]c1"
Data returned: 85 (78, 92) %

====

- Tested on: Ntera-2 testicular cancer cells
- Method Notes: MTT cytotoxicity assay of vanadocenes, NTERA-2 cells
- Format: cell-based, human
- Measurement Parameters: 24 h, 1.9-250 μM
- Procedure: Human testicular cancer cell lines, Tera-2 (embryonal carcinoma) and Ntera-2 (pluripotent embryonal carcinoma) were obtained from the American Type Culture Collection (ATCC) (Rockeville, Md.) and propagated in T-25, T-75, or T-150 cm^2 tissue culture flasks (Corning Corp., Corning, N.Y.) in McCoy's 5A medium and Dulbecco's modified Eagle's medium respectively. Both media were supplemented with 10% fetal calf serum (FCS), 4 mM glutamine, 100 U/ml penicillin G, and […] streptomycin sulfate. […]
// reported pIC50 for each item listed
Please report pIC50 as the negative decimal logarithm of the molar concentration, giving only the number.

Solved entries (count: 10):
In [3]: df
Out[3]:
                                   molecule  measure  obs_value
0  [Cl-].[N-]=C=O.[V+2].c1cc[cH-]c1.c1cc[cH-]c1 [VDCO, VCp2(NCO)Cl]    pIC50       4.05
1  [I-].[I-].[V+2].c1cc[cH-]c1.c1cc[cH-]c1 [VDI, VCp2I2]    pIC50       3.69
2  C1=C[CH]([V+2][CH]2C=CC=C2)C=C1.[N-]=C=[Se].[N-]=C=[Se] [VDSeCN, VCp2(NCSe)2]    pIC50       4.66
3  [Br-].[Br-].[V+2].c1cc[cH-]c1.c1cc[cH-]c1 [VDB, VCp2Br2]    pIC50       4.15
4  [Cl-].[Cl-].[V+4].c1cc[cH-]c1.c1cc[cH-]c1 [VDC, VCp2Cl2]    pIC50       4.13
5  [O-]c1ccccc1[O-].[V+2].c1cc[cH-]c1.c1cc[cH-]c1 [VD(cat), Cp2V(cat)]    pIC50       4.03
6  O=S(=O)(O)C(F)(F)F.O=S(=O)(O)C(F)(F)F.[V+2].c1cc[cH-]c1.c1cc[cH-]c1 [VDT, VCp2(O3SCF3)2]    pIC50       3.86
7  [N-]=[N+]=[N-].[N-]=[N+]=[N-].[V+2].c1cc[cH-]c1.c1cc[cH-]c1 [VDA, VCp2(N3)2]    pIC50       4.17
8  Cc1c(C)c(C)[c-](C)c1C.Cc1c(C)c(C)[c-](C)c1C.[Cl-].[Cl-].[V+2] [VPMDC, V(Me5Cp)2Cl2]    pIC50       4.36
9  CC#N.[Cl-].[Cl-].[Cl-].[Cl-].[Cl-].[Fe+3].[V+4].c1cc[cH-]c1.c1cc[cH-]c1 [VDFe, VCp2Cl (CH3CN)(FeCl4)]    pIC50       3.95

Switching to the query record.
Data request: Report pIC50 under test system Ntera-2 testicular cancer cells for CC(=O)[CH-]C(C)=O.O=S(=O)([O-])C(F)(F)F.[V+4].c1cc[cH-]c1.c1cc[cH-]c1 [VD(acac), VCp2(acac)(O3SCF3)] .
Data returned: 4.12
